src = patent US20190367592A1

# Test system: T1, recombinant human Tau monomer, 2N4R isoform (amino acids 2-441) (human, UniProt P10636-8 2-441)
# T1 construct: range 2-441; N-terminal His-tag removed with TEV protease; also called monomeric Tau
# T1 sequence (P10636 other isoform, or with tags, fused parts or gaps limits assumed): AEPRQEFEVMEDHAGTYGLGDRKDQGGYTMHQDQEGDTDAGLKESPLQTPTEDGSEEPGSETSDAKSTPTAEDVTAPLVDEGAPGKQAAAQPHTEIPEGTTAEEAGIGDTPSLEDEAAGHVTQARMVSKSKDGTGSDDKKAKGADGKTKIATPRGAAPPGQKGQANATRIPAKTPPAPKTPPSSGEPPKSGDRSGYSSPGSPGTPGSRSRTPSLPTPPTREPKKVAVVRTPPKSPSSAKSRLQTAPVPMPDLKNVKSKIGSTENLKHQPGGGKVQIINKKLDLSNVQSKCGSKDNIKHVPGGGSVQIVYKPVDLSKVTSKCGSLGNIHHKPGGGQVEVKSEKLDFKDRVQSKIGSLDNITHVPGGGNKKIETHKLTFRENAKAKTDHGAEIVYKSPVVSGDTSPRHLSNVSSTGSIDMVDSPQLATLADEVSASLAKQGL
# Experimental details: SPR screen, hIgG captured, Tau monomer analyte
Could you please report measured Kd for the items listed next?
One number for each entry, in nM.

As a guide, the following entries are already answered.
INSERT INTO results (binder, data_value) VALUES
  ('hu125B11.v17 (HC3+LC1) (antibody, IgG1, V domains shown, also called hu125B11 HC3 + 125B11 LC1) VH: EVQLVESGGGLVQPGGSLRLSCAASRFIFSNYWMNWVRQAPGKGLEWVAQIRLKSDNYATHYAESVKGRFTISRDDSKNTLYLQMNSLRAEDTAVYYCTGGTTYWGQGTLVTVSS VL: DIQMTQSPSSLSASVGDRVTITCKASQNVGTAVAWYQQKPGKSPKLLIYSASIRYTGVPSRFSGSGSGTDFTLTISSLQPEDFATYFCQQFRTYPYTFGQGTKVEIK', 18),
  ('hu125B11 HC3 + hu113F5-F7 LC4 (antibody, V domains shown) VH: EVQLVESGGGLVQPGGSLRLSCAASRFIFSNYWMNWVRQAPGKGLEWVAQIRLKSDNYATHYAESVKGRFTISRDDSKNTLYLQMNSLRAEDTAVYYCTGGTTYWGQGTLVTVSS VL: DIQMTQSPSSLSASVGDRVTITCKASQNVGTAVAWYQQKPGKAPKLLIYSASRRFSGVPSRFSGSGSGTDFTLTISSLQPEDFATYYCQQFSTYPYTFGQGTKVEIK', 65);

Moving on to the next binder.
-- ask Look at this binder and give its reported Kd. hu125B11 HC2 + 125B11 LC1 (antibody, V domains shown) VH: EVQLVESGGGLVQPGGSLRLSCAASRFIFSNYWMNWVRQAPGKGLEWVAQIRLKSDNYATHYAESVKGRFTISRDNSKNTVYLQMNSLRAEDTAVYYCTGGTTYWGQGTLVTVSS VL: DIQMTQSPSSLSASVGDRVTITCKASQNVGTAVAWYQQKPGKSPKLLIYSASIRYTGVPSRFSGSGSGTDFTLTISSLQPEDFATYFCQQFRTYPYTFGQGTKVEIK
-- reply 18
